- Procedure Text: Hemolytic activity in human erythrocytes incubated for 1 hr
- Format: toxicity, cell-based, Erythrocyte
- Experimental Conditions: read-out: Activity
Assay Readout: hemolysis at 1 h

Exercise: What value of measured hemolysis at 1 h is listed for H-GIGKFLHSAKKFGKAFVGEIMNS-NH2 ?
Key: < 2%

----------
- System: [Candida] auris
- Procedure Text: Antimicrobial activity against Candida auris 919
- Assay type: functional
- Experimental Conditions: Candidozyma auris
Positions of bridges follow the written chain, without caps; N, C: chain ends. Non-standard residues stand in square brackets, D forms with d. Residues, ends and D or L forms follow the SMILES beside them. S5 = C=CCCC[C@](C)(N)C(=O)O
Assay Readout: MIC

>>> assay_result("CC[C@H](C)[C@H](NC(=O)[C@H](CC(=O)O)NC(=O)[C@H](Cc1ccccc1)NC(=O)[C@H](CC(C)C)NC(=O)CNC(C)=O)C(=O)N[C@H](C(=O)N[C@@H](CCCCN)C(=O)N[C@@H](CCCCN)C(=O)N[C@@]1(C)CCC/C=C\\CCC[C@@](C)(C(N)=O)NC(=O)[C@H](CO)NC(=O)[C@H](CCC(=O)O)NC(=O)[C@H](C)NC1=O)[C@@H](C)CC (Ac-GLFDIIKK[S5]AES[S5]-NH2; staple (Z) 9-13)")
"> 128 µg/mL"
>>> assay_result("CC[C@H](C)[C@H](NC(=O)[C@H](CCCCN)NC(=O)[C@H](CCCCN)NC(=O)[C@@H](NC(=O)[C@]1(C)CCC/C=C\\CCC[C@](C)(NC(C)=O)C(=O)N[C@@H](CC(C)C)C(=O)N[C@@H](Cc2ccccc2)C(=O)N[C@@H](CC(=O)O)C(=O)N1)[C@@H](C)CC)C(=O)N[C@@H](C)C(=O)N[C@@H](CCC(=O)O)C(=O)N[C@@H](CO)C(=O)N[C@@H](Cc1ccccc1)C(N)=O (Ac-[S5]LFD[S5]IKKIAESF-NH2; staple (Z) 1-5)")
"> 128 µg/mL"

Could you now consider this next molecule?
Exercise: What value of measured MIC is listed for CC[C@H](C)[C@@H]1NC(=O)[C@H](CCCCN)NC(=O)[C@@](C)(NC(=O)[C@@H](NC(=O)[C@@H](NC(=O)[C@H](CC(=O)O)NC(=O)[C@H](Cc2ccccc2)NC(=O)[C@H](CC(C)C)NC(=O)CN)[C@@H](C)CC)[C@@H](C)CC)CCC/C=C\CCC[C@@](C)(C(=O)N[C@@H](CO)C(=O)N[C@@H](Cc2ccccc2)C(N)=O)NC(=O)[C@H](C)NC1=O (H-GLFDII[S5]KIA[S5]SF-NH2; staple (Z) 7-11) ?
Key: > 128 µg/mL

Data credit: ChEMBL document CHEMBL5113383
